target: SARS-COV-2 3CLpro/Mpro protease (Severe acute respiratory syndrome coronavirus 2 (2019-nCoV) (SARS-CoV-2), UniProt P0DTD1); assay: Inhibitory effect on SARS-COV-2 3CLpro/Mpro protease by fluorescence resonance energy transfer; assay type: biochemical; settings: activity intervals A-D, read-out: IC50 (nM), Inhibition on SARS-CoV-2 3CLpro/Mpro protease
attribute_measured: IC50

Lab book: IC50 of CNc1cncc(C(=O)N2CCC[C@@H](Nc3c(C(=O)N4CCN(C5CCOCC5)CC4)cc(Br)cc3[N+](=O)[O-])C2)c1 [Example 235] noted as 10 to 50 nM

Lab book: IC50 of O=C(c1cc(Br)cc([N+](=O)[O-])c1N[C@@H]1CCCN(C(=O)c2cc(=O)[nH]c3cc(Cl)ccc23)C1)N1CCCCC1 [Example 128] noted as 10 to 50 nM

Lab book: IC50 of CNc1cncc(C(=O)N2C[C@H](Nc3c(C(=O)N4CCO[C@H](C)C4)cc(Br)cc3[N+](=O)[O-])[C@@H](OC)C2)c1 [Example 322] noted as 10 to 50 nM

Lab book: IC50 of CNc1cncc(C(=O)N2C[C@H](Nc3c(C(=O)N4C[C@@H](C)O[C@@H](C)C4)cc(Br)cc3[N+](=O)[O-])[C@@H](OC)C2)c1 [Example 321] noted as 10 to 50 nM

Lab book: IC50 of CNc1cncc(C(=O)N2CCC[C@@H](Nc3c(C(=O)N4CCn5cncc5C4)cc(Br)cc3[N+](=O)[O-])C2)c1 [Example 314] noted as 10 to 50 nM

Lab book: IC50 of CNc1cncc(C(=O)N2C[C@H](Nc3c(C(=O)N4C[C@@H](C)O[C@@H](C)C4)cc(Br)cc3[N+](=O)[O-])C[C@@H](O[C@H]3CCOC3)C2)c1 [Example 452] noted as 50 to 100 nM

###

assay: in vivo; details: male, CD1, mouse, in vivo, iv, 1 mg/kg
Please use the following clearance ranges when assigning a class: low = under 7 mL/min/kg, intermediate = from 7 mL/min/kg up to 10 mL/min/kg, high = 10 mL/min/kg and over

input: Which of the defined bands does the recorded clearance of `CNc1cncc(C(=O)N2CCC[C@@H](Nc3c(C(=O)N4CCO[C@H](C)C4)cc(Br)cc3[N+](=O)[O-])C2)c1` sit within?
output: intermediate

input: Which of the defined bands does the recorded clearance of `CNc1cncc(C(=O)N2CCC[C@@H](Nc3c(C(=O)N4CCOC(F)(F)C4)cc(Br)cc3[N+](=O)[O-])C2)c1` sit within?
output: intermediate

input: Which of the defined bands does the recorded clearance of `CNc1cncc(C(=O)N2C[C@H](Nc3c(C(=O)N4C[C@@H](C)O[C@@H](C)C4)cc(Br)cc3[N+](=O)[O-])[C@@H](OC)C2)c1` sit within?
output: low

input: Which of the defined bands does the recorded clearance of `CNc1cncc(C(=O)N2CCC[C@@H](Nc3c(C(=O)N4C5CCCC4COC5)cc(Br)cc3[N+](=O)[O-])C2)c1` sit within?
output: high

input: Which of the defined bands does the recorded clearance of `O=C(c1cc(Br)cc([N+](=O)[O-])c1N[C@@H]1CCCN(C(=O)[C@H]2CNCC(F)(F)C2)C1)N1CCCCC1` sit within?
output: low

input: Which of the defined bands does the recorded clearance of `CNc1cncc(C(=O)N2CCC[C@@H](Nc3c(C(=O)N4CCCC(F)(F)C4)cc(Br)cc3[N+](=O)[O-])C2)c1` sit within?
output: high

input: Which of the defined bands does the recorded clearance of `CNc1cncc(C(=O)N2CCC[C@@H](Nc3c(C(=O)N4CCCCC4)cc(Br)cc3[N+](=O)[O-])C2)c1` sit within?
output: high

input: Which of the defined bands does the recorded clearance of `CNc1cncc(C(=O)N2CCC[C@@H](Nc3c(C(=O)N4C[C@@H](C)O[C@@H](C)C4)cc(Br)cc3[N+](=O)[O-])C2)c1` sit within?
output: intermediate
